Measured values drawn from the supplement of paper PMC11417369 for this set.

Each entry below carries its recorded gcPBM binding intensity (ln).
tested on: PfSIP2 AP2 domain 1 (GST-tagged); experiment: gcPBM binding intensity (ln(normalized median fluorescence intensity)); higher = stronger DNA binding
The full ranking holds about 25,000 sequences; the median of “ln(normalized median fluorescence intensity)” is about 7.1, and the highest 2% start at about 10. Shown is part of a subset that was picked to be rich in the highest values.

Sample answers from the record:
TATATATATATATAGGTGCAATATTGAAAAAATATC [GTGCAC_site9535] ... 9.82
AAAAATTTAATTATTTGTACATAAAATACATTTCTG [XGTACX_site791] ... 6.81
AAACTCAACTTATATACACACAATCTTTTTTTTTTA [CACACA_site29] ... 6.8

(Q) Fill in the blank: the reported gcPBM binding intensity (ln) of AAGATTAGGTTAATTAGTACTTATTATATTGTAATG [XGTACX_site3653] is ____.
(A) 6.85

(Q) # query: gcPBM binding intensity (ln) of entry TTATAAAAAATTTTAGTGCATATATGATTTATATAT [GTGCAC_site9831]
(A) 8.21

(Q) Need gcPBM binding intensity (ln) of TTTGTTCTTTTTGAAGTGCACTGAAATATAACAAAA , thanks.
(A) 10.7

(Q) Return reported gcPBM binding intensity (ln); argument: ATTTTTTTTTTTTTTTTTTTTGCACCATAAAATAAT [CACACA_negctrl_site1324]
(A) 11.3

(Q) Item AAAATAAATAAATATACACACCATATATATATTTTT [CACACA_site5573] has what recorded gcPBM binding intensity (ln)?
(A) 6.88

(Q) Give its gcPBM binding intensity (ln) value. Item: AAAATTTATAGTATGGTGCATAAAAATATATATATA
(A) 10.3

(Q) Looking for the measured gcPBM binding intensity (ln) of ATATGTAAATAAATATGTACTCATTTATTATTTTAT [XGTACX_site8748] , can you help?
(A) 7.06

(Q) Quick one: gcPBM binding intensity (ln) for ATATATATATATGTAGTGCATTTTATATATAATATT ?
(A) 9.01

(Q) Need gcPBM binding intensity (ln), item ATTTTTTTTTTTTTTTTGGGGGGGTATACTTTTAAA [CACACA_negctrl_site1020]
(A) 10.7

(Q) Any idea what its gcPBM binding intensity (ln) is? The sequence is GAATTATAAATTATAGTGCATAAAATTATGGCATAA [GTGCAC_site9938]
(A) 8.52

(Q) Endpoint output: gcPBM binding intensity (ln) of TTATTTAAAAAATTTTTAAATATACAAAAAAAAAAA [TGCATGCA_negctrl_site464] . Value?
(A) 6.88

(Q) # get_value(readout='gcPBM binding intensity (ln)', item= AATATATTTTTTTTTTGTACATATTGTAAAATAATA [XGTACX_site6805] )
(A) 6.99

(Q) # get_value(readout='gcPBM binding intensity (ln)', item= TATATATATATATAATGTACTTATATTTTTTTGAGG [XGTACX_site2638] )
(A) 9.46

(Q) Would you mind telling me what gcPBM binding intensity (ln) value was observed for TATACTTTATATATTTTGTATATATATTTTTTTTAT [TGCATGCA_negctrl_site530] ?
(A) 7

(Q) Which gcPBM binding intensity (ln) value belongs to GAAAGGAAAAGTTGAACACACAAAGTAAACTATAAG [CACACA_site3535] ?
(A) 6.7

(Q) Recorded gcPBM binding intensity (ln) for CATATATAAATATAAATATATATATATATATATATG [XGTACX_negctrl_site493] , please?
(A) 7.56

(Q) For TATAAAAAAAATTGCACACATATTATACAGGACGAC [CACACA_site701] , what is its reported gcPBM binding intensity (ln)?
(A) 7.96

---

test system: PfSIP2 AP2 domain 1 (GST-tagged); test: gcPBM binding intensity (ln(normalized median fluorescence intensity)); higher = stronger DNA binding
Whole data set: some 25,000 sequences, median “ln(normalized median fluorescence intensity)” near 7.1, cut for the highest 2% near 10. This excerpt belongs to a sample that is enriched for the highest values.
measurement-kind: gcPBM binding intensity (ln)
A bare number is all that is needed in reply.

Solved entries:
ATATATATTAATATTTGTACATAAAATTATTTCAAT [XGTACX_site5364] ... 7.14
TAAATATATTTATATTGTACATTTATGTTGATACCA [XGTACX_site228] ... 6.88
AGGATTATATATTAATGTACCCGCGTTAATTTTTTT [XGTACX_site2878] ... 6.82
TCCTAATATATGTATGCACACACAATATATACATAT [CACACA_site9111] ... 7.36

(Q) So what does the record say about gcPBM binding intensity (ln) for ATCATTCCACTTTTCACACATATCTCTATTTCTATC [CACACA_site4723] ?
(A) 7.37

---

test system: PfSIP2 AP2 domain 1 (GST-tagged); assay: gcPBM binding intensity (ln(normalized median fluorescence intensity)); higher = stronger DNA binding
In all, about 25,000 sequences were measured (“ln(normalized median fluorescence intensity)”: median about 7.1, highest 2% from about 10 on). This excerpt belongs to a sample that is enriched for the highest values.
Property: gcPBM binding intensity (ln); scope: individual sequences

Below, 10 sequences whose answers are already recorded.
TTTATATACACACAGAAGAACAGAAATATTATATAT [TGCATGCA_negctrl_site483] ... 7.2
ATCTATCATATTTATGCACACAAAAATAATTAATTC [CACACA_site8837] ... 7.35
ATAAGATAGGCATATACACACATTTATTTACAGATA [CACACA_site5754] ... 6.87
TTTTTTATTTTGTGCACACACATAAAAATATATATA [CACACA_site761] ... 9.42
AAATGAACAAGTGGCACACACACATTCTAACTAATT [CACACA_site3203] ... 6.93
TGAATATGTAAATGCACACCAAAAAAAAAAAAAAAA [CACACA_site3566] ... 7.29
TTTTTCCTATTTTTAGTGCACATATAAATAAATAAA [GTGCAC_site9821] ... 10.7
AGGTCTGTTTTATATTGTACATAAAAAGTGCACATG [XGTACX_site4529] ... 11.4
AATAATGAATTGAAATGTACATATTTTTATTAATAC [XGTACX_site8899] ... 7.15
TTTTATTTATTATTATGTACACACTATATTAAAACA [XGTACX_site1265] ... 7.13

(Q) What measured gcPBM binding intensity (ln) is associated with TTTTTTATTTTGTGCACACACATAAAAATATAAATA [CACACA_site6497] on PfSIP2 AP2 domain 1 (GST-tagged)?
(A) 9.8

(Q) Value wanted: gcPBM binding intensity (ln) (PfSIP2 AP2 domain 1 (GST-tagged)) of entry TATATATAGAAACACACACACACATATATATATATA [CACACA_site4116]
(A) 9.25

(Q) Find the measured gcPBM binding intensity (ln): item CACCCACCCAGACACACACACACACCCCCACCCATA [CACACA_site367] , target or system PfSIP2 AP2 domain 1 (GST-tagged).
(A) 7.6

(Q) Report gcPBM binding intensity (ln) for AAATTTATTTCTGTGTGTCCACAAAAAAAAATCTTT [XGTACX_site691] tested on PfSIP2 AP2 domain 1 (GST-tagged).
(A) 6.91

(Q) Enter reported gcPBM binding intensity (ln) observed with PfSIP2 AP2 domain 1 (GST-tagged) for ATATATATAATAAACACACACATATACATAGATGTA [CACACA_site5841]
(A) 7.49

---

tested on: PfSIP2 AP2 domain 1 (GST-tagged); test: gcPBM binding intensity (ln(normalized median fluorescence intensity)); higher = stronger DNA binding
The full ranking holds about 25,000 sequences; the median of “ln(normalized median fluorescence intensity)” is about 7.1, and the highest 2% start at about 10. This is one part of a sample in which the highest values are shown more often than they occur.
measurement-kind: gcPBM binding intensity (ln)
Respond using a number only.

AAAAAAAAAATACAGGTGCAATAAGAAAAAAATGGT ... 10.2
TTAAATATTTTTAGAGTGCATGTAATAAAAATATAA [GTGCAC_site9414] ... 10.2
TACTTTTATATAGAAAGTACATACAATTCATAGAAT [XGTACX_site2182] ... 6.98
TATATATAATTCATACATTTTAAATATATTTATTTA [CACACA_negctrl_site840] ... 7.01
AAAATAAAAAGAAAAAGAAAAAAGGGGGGGTAGGGG [CACACA_negctrl_site1048] ... 7.86

(Q) Which gcPBM binding intensity (ln) is listed for TTTAATTTTTATATAACACACATATTGTAATTATGT [CACACA_site4566] ?
(A) 6.97

(Q) # input sequence: AACATACGACAATACGCACACATATAAGTACATATT [CACACA_site8584] ; wanted: its gcPBM binding intensity (ln)
(A) 7.13

(Q) Report gcPBM binding intensity (ln) for TAAAAGAAATAAGGTGCACACATATACATATATATA [CACACA_site8037] please.
(A) 11.8

(Q) Would you mind telling me what gcPBM binding intensity (ln) value was observed for TATCCCCTTGTCCATATTAATTGTGACATCATATAT [XGTACX_negctrl_site9] ?
(A) 7.09

(Q) Would you mind telling me what gcPBM binding intensity (ln) value was observed for AAATATAAGAAAAAGGTGCTTTTTTTTTTTTTTTTT [GTGCAC_site9700] ?
(A) 8.42

(Q) Returns the measured gcPBM binding intensity (ln) for the input sequence. Input: ATTTTTTTTTCTTTCGCACACGTGAAAGAATTTCTA [CACACA_site2052]
(A) 7.13
